Molecular target: recombinant human GAA (rhGAA, Myozyme) (Homo sapiens, UniProt P10253)
Test: In vitro apparent IC50, fluorogenic substrate assay on rhGAA
pIC50: −log10 of the molar value.
readout kind: pIC50

Measured pIC50 of CCCCCCCCN1[C@@H]2[C@H](Cn3cc(CNC(=O)CCCCC[N+]4=C(/C=C/C=C/C=C5/N(C)c6ccccc6C5(C)C)C(C)(C)c5ccccc54)nn3)[C@@H](O)[C@H](O)[C@@H](O)[C@@H]21 (stereo partly shown) : < 4.00

====

Target: human GBA2 (from lysates of GBA2 overexpressed cells) (Homo sapiens)
Construct: expressed in transfected cells; host or cells: HEK293T
Sequence (Q9HCG7 1-927): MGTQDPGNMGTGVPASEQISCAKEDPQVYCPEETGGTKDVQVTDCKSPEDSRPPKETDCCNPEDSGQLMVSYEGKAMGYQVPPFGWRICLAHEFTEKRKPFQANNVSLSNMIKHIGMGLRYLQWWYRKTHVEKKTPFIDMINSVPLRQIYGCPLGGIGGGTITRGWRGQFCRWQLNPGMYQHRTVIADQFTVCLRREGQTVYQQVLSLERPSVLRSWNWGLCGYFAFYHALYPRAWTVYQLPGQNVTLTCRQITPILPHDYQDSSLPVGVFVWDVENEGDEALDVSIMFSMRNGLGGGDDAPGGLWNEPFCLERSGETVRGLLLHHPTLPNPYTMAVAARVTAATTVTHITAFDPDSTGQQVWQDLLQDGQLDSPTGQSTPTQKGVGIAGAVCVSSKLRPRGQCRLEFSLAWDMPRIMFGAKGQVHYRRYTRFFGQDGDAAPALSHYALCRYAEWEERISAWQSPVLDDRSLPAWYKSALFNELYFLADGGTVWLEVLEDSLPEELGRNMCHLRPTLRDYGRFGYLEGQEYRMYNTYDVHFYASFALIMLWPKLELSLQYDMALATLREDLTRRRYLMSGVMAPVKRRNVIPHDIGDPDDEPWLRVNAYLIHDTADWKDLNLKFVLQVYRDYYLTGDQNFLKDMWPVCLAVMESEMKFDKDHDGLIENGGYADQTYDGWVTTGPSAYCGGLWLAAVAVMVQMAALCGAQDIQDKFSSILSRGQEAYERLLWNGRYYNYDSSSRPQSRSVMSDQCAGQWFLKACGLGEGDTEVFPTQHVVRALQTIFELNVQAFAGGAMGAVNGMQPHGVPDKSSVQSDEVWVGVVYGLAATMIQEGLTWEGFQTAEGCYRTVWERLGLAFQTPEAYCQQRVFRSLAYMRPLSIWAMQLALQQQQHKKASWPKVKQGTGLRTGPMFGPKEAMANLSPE
Assay: In vitro apparent IC50, fluorogenic substrate assay on GBA2 in lysates of overexpressing cells
Type: biochemical
pIC50: −log10 of the molar value.
readout kind: pIC50

pIC50 reported for this compound CCCCCCCCN1[C@@H]2[C@H](Cn3cc(CNC(=O)CCCCC[N+]4=C(/C=C/C=C/C=C5/N(C)c6ccccc6C5(C)C)C(C)(C)c5ccccc54)nn3)[C@@H](O)[C@H](O)[C@@H](O)[C@@H]21 (stereo partly shown) : < 4.00

====

Biological target: recombinant human GBA (rhGBA, Imiglucerase) (Homo sapiens, UniProt P04062, R534H)
Construct: purchased Sanofi Genzyme (Cambridge, MA, USA)
Sequence (P04062 40-536 R534H): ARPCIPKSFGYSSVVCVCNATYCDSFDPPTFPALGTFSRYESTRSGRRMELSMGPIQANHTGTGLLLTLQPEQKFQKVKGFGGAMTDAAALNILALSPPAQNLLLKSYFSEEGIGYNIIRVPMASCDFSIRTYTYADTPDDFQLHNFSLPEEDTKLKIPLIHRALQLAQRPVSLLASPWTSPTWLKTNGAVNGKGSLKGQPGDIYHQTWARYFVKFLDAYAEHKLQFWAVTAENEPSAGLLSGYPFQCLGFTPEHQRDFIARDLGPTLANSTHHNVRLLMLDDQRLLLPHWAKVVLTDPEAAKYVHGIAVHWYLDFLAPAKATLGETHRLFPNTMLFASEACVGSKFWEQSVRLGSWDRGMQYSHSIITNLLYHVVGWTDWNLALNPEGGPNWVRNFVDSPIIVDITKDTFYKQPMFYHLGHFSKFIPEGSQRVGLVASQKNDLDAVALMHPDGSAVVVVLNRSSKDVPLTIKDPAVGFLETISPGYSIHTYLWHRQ
Assay: In vitro apparent IC50, fluorogenic substrate assay on rhGBA
Assay type: biochemical
Conditions: apparent IC50; 3 h pre-incubation; 4-methylumbelliferyl-β-glucoside substrate; ± SD from technical duplicates; read-out: In vitro rhGBA IC50
readout kind: IC50 (µM)
Respond numerically; units are µM and should not be typed.

// IC50 lookup, molecule = CCCCCCCCN1[C@@H]2[C@H](Cn3cc(CNC(=O)CCCCC[N+]4=C(/C=C/C=C/C=C5/N(C)c6ccccc6C5(C)C)C(C)(C)c5ccccc54)nn3)[C@@H](O)[C@H](O)[C@@H](O)[C@@H]21 (stereo partly shown) , result: 0.0531

All figures here come from paper PMC9298352.
